The reported numbers originate from ChEMBL document CHEMBL1149163.

assayComment: Neurologic toxicity from rotarod test in rats, perorally
Assay type: organism-based
particulars: rat, in vivo, po

molecule	TD50
CCNCC(=O)Nc1c(C)cccc1C	> 500 mg/kg
CCN(CC)C(=O)C(C)NC(=O)OCc1ccccc1 (stereo not drawn)	> 30 mg/kg
CCNC(=O)CNC(=O)OCc1ccccc1	> 500 mg/kg
CN(C)C(=O)CNC(=O)OCc1ccccc1	> 30 mg/kg
CCN(CC)C(=O)CNC(=O)OCc1ccccc1	> 30 mg/kg
Cc1cccc(NC(=O)N(C)C)c1	> 30 mg/kg
CON(C)C(=O)CNC(=O)OCc1ccccc1	> 30 mg/kg
CON(C)C(=O)C(C)NC(=O)OCc1ccccc1 (stereo not drawn)	> 30 mg/kg

###

assayComment: Neurologic toxicity from rotarod test in mice
Format: organism-based
particulars: mouse, in vivo
TD50 reference
experimentalReadout: TD50 (mg/kg)

compound	recordedValue
CCN(CC)C(=O)C(C)NC(=O)OCc1ccccc1 (stereo not given)	130
CN(C)C(=O)CNC(=O)OCc1ccccc1	130
CCNCC(=O)Nc1c(C)cccc1C	50
CCN(CC)C(=O)CNC(=O)OCc1ccccc1	91
CON(C)C(=O)CNC(=O)OCc1ccccc1	140

###

assayComment: Neurologic toxicity from rotarod test in rats, perorally; Value ranges from >100 to <300
Type: organism-based
particulars: rat, in vivo, po
experimentalReadout: TD50

structureSmiles	recordedValue
CNC(=O)CNC(=O)OCc1ccccc1	> 100 mg/kg
